Provenance of the data: a collection of fitness landscapes (doi:10.1126/science.1257360)

B1: PhoQ; a variant is named by its letters at X, in order, P23837 (parent)
chain: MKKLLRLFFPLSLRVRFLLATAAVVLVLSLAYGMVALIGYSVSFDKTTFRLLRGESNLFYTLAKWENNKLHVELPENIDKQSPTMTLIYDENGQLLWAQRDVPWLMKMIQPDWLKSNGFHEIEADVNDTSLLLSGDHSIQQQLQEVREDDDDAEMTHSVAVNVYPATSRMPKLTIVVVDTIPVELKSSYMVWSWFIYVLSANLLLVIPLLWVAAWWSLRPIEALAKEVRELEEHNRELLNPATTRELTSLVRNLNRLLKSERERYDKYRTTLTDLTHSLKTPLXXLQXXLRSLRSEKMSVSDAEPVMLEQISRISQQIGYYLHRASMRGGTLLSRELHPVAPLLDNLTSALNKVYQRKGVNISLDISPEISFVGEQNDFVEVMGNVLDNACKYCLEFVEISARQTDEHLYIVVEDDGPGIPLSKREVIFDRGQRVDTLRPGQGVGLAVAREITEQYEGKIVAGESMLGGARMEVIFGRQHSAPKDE

variants of: B1; assay: enrichment ratio after two sorts for PhoP signalling (ratio (wild type AVST 3.29)); higher = more functional; settings: with PhoP (E. coli)
Over roughly 140,000 sequences, “enrichment ratio after two sorts for PhoP signalling” has its median near 0; the highest 2% begin near 11. The list comes from a sample in which the highest values are over-represented; it also holds close analogues and randomly drawn sequences.
Quick rule: enrichment ratio of at least 0.7 means satisfied, below that means not satisfied.

A selection of reference data follows.
mutation_label | assigned_class
DNQI | satisfied
LTMI | not satisfied
PREH | not satisfied
SPAY | not satisfied
PTMI | not satisfied

Threshold query (enrichment ratio >= 0.7) on SLQI
satisfied

Check if enrichment ratio >= 0.7 (inclusive). Item: AKMI
satisfied

Evaluate AYMI : enrichment ratio at minimum 0.7?
not satisfied
